Each recorded value in this set is attributed to paper PMC6889545.

MRT: recorded values
MEASUREMENT_NOTES: Plasma pharmacokinetics of the peptides after a single dose
Format: in vivo
ASSAY_CONDITIONS: male, CD1, mouse, plasma, iv, 12.5 mg/kg, 8-week-old male CD1 mice, single intravenous dose 12.5 mg/kg, plasma 0-24 h, LC-MS/MS, WinNonlin 6.1; read-out: MRT0-inf (mean residence time) in plasma
Non-standard residues stand in square brackets, D forms with d. Residues, ends and D or L forms follow the SMILES beside them.
Numeric only. Scale: min

COMPOUND	MRT / min
CC(C)C[C@H](NC(=O)[C@H](CC(N)=O)NC(=O)[C@@H]1CCCN1C(=O)[C@@H]1CCCN1C(=O)[C@H](Cc1c[nH]c2ccccc12)NC(=O)[C@H](CC(C)C)NC(=O)[C@@H](C)N)C(=O)N[C@@H](Cc1c[nH]cn1)C(=O)N[C@@H](C)C(=O)N[C@@H](Cc1c[nH]c2ccccc12)C(=O)N[C@H](C(=O)N1CCC[C@@H]1C(=O)O)C(C)C [ALW peptide] (H-[dA]LWPPNLHAWV[dP]-OH)	7.8

Note: attention shifts to another entry.
Consider CC(C)C[C@H](NC(=O)[C@@H](NC(=O)[C@H](Cc1c[nH]c2ccccc12)NC(=O)[C@@H]1CCCN1C(=O)[C@H](CC(N)=O)NC(=O)[C@H](Cc1c[nH]cn1)NC(=O)[C@@H]1CCCN1C(=O)[C@H](CC(C)C)NC(=O)[C@H]1CCCN1)C(C)C)C(=O)N[C@@H](C)C(=O)N[C@@H](C)C(=O)N[C@H](Cc1c[nH]c2ccccc12)C(=O)O [PLP peptide, reference compound] (H-[dP]LPHNPWVLAA[dW]-OH) . Its measured MRT is 13.8
